Origin of values: PubChem BioAssay

# Test system: Inhibin beta A chain (activin A)
# protocol summary: small molecules binding activin A – biochemical, small-molecule microarray, 635 nm fluorescence scan, primary screen (AID 1107);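 further: mouse activin A protein probed at 4.33 µg/mL on printed slides; score merges bound-protein fluorescence near 667 nm with spot signal-to-noise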
# condition set: INHBA, higher = more signal
parameter: composite z-score

1) COCCOC(=O)N1C(=O)[C@@]2(c3cc(C#CCCO)ccc31)[C@H](C(=O)N1CCc3cc(OC)c(OC)cc3C1)[C@H]1C(=O)O[C@H](c3ccccc3)[C@H](c3ccccc3)N1[C@@H]2c1ccc(OCCO)cc1
0.0945
2) CCOC(=O)C[C@H]1[C@H](OC(=O)c2ccccc2-c2ccccc2)[C@@H](NC(=O)c2ccccc2)c2cc(OCCCO)ccc2N1C(=O)Cc1ccc(OC)cc1
0.264

Query: // returns reported composite z-score for input CN1C(=O)C2C=CC(C(O)C3CCCCC3)N(N(c3ccccc3)c3ccccc3)C2C1=O (stereo not drawn)
Reply: 1.48

Query: Now the same for O=C(NCc1ccccc1)[C@]1(Cc2ccccc2)N=C(c2ccc(OCCCO)cc2)O[C@@H]1c1ccccc1
Reply: 0.672

Query: Now the same for COCCOC(=O)N1C(=O)[C@@]2(c3cc(C#Cc4ccc(OC)cc4)ccc31)[C@H](C(=O)N1CCc3cc(OC)c(OC)cc3C1)[C@H]1C(=O)O[C@H](c3ccccc3)[C@H](c3ccccc3)N1[C@@H]2c1ccc(OCCO)cc1
Reply: 0.115

###

# target desc: Dihydroorotate dehydrogenase (quinone), mitochondrial (Plasmodium falciparum (isolate 3D7)) (UniProt Q08210)
# Sequence (Q08210 whole entry, looked up): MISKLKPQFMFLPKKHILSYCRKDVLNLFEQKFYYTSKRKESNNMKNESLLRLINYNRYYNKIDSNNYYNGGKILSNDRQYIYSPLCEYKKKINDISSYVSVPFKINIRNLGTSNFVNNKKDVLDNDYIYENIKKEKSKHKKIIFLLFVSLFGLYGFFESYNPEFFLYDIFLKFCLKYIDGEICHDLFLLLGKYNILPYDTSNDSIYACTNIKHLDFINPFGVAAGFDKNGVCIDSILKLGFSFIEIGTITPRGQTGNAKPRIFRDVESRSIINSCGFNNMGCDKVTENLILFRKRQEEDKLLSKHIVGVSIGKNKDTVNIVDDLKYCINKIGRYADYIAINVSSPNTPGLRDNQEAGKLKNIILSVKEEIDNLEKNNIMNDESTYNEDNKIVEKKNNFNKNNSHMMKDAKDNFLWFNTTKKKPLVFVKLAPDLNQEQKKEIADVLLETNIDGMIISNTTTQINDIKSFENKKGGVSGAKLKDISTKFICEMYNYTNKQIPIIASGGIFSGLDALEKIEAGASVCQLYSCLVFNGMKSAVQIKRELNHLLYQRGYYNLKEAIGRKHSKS
# protocol summary: inhibition of P. falciparum DHODH – biochemical, C-terminal His tag, absorbance 600 nm, primary screen (AID 1175);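 further: recombinant parasite enzyme with a five histidine tag at its C terminus; test concentration not given here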
# condition set: PfDHODH enzyme, DCIP absorbance 600 nm; higher = more signal, called active from +8 up or from −8 down
Think of -0.5 as a floor: if composite z-score stands on it or above, it is true (1); beneath it, false (0).

A selection of reference data follows.
1. COc1ccc(C#Cc2ccc3c(c2)[C@]2(C(=O)N3)[C@H](c3ccc(OCCO)cc3)N3[C@H](c4ccccc4)[C@H](c4ccccc4)OC(=O)[C@H]3[C@@H]2C(=O)N2CCN(c3ncccn3)CC2)cc1
false (0)
2. COCCOC(=O)N1C(=O)[C@@]2(c3cc(C#Cc4ccc(OC)cc4)ccc31)[C@H](C(=O)N1CCc3cc(OC)c(OC)cc3C1)[C@H]1C(=O)O[C@H](c3ccccc3)[C@H](c3ccccc3)N1[C@@H]2c1ccc(O)cc1
true (1)
3. COC(=O)[C@@]1(Cc2ccc(OC)cc2)[C@H]2c3cc(C(=O)N(C)C)n(Cc4cc(C)n(C)n4)c3C[C@H]2CN1C(=O)c1ccccc1
false (0)

Query: For this compound, is measured composite z-score -0.5 or higher? CC(C)NC(=O)[C@@]1(Cc2ccccc2I)c2ccccc2C(=O)N(Cc2ccccc2C(F)(F)F)[C@H]1c1ccc(CO)cc1
Reply: true (1)

###

# protocol summary: S. pombe growth modifiers, basal conditions – strain 972, OD600, 24 h, no modulator, primary screen (AID 1090);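 further: basal condition with compound alone and no growth modifier present; test concentration not given here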
# condition set: S. pombe 972 growth, higher = more signal, called active from +8 up or from −8 down
Think of 0.1 as a floor: if z-score stands on it or above, it is true; beneath it, false.

Query: For this compound, is measured z-score 0.1 or higher? NC(=O)[C@H]1[C@@H]2C(=O)O[C@@H](c3ccccc3)[C@@H](c3ccccc3)N2[C@@H](c2ccc(O)cc2)[C@]12C(=O)Nc1ccc(C#CC3(O)CCCCCC3)cc12
Reply: false

Query: Now the same for CC(C)CN1C(=O)[C@@]2(Cc3ccccc31)c1ccccc1C(=O)N(Cc1ccccc1)[C@H]2c1ccc(CO)cc1
Reply: false

Query: Now the same for CCCC=C(CCC)[C@@H](NS(=O)(=O)c1ccccc1)c1ccc(C(F)(F)F)cc1
Reply: true

Query: Now the same for COc1ccc(C(=O)Nc2ccc(CN3C(=O)[C@@]4(O[C@@H](CC(=O)N5Cc6ccccc6C[C@H]5CO)[C@H]([Si](C)(C)c5ccc(OC)cc5)[C@H]4C)c4ccccc43)cc2)cc1
Reply: true

Query: Now the same for Cc1ccc(S[C@]2(C(=O)NCc3ccccc3)CC(=O)N(C3Cc4ccccc4C3)[C@@H]2c2ccc(CO)cc2I)cc1
Reply: false

###

# protocol summary: probe aShh binding to arrayed compounds – biochemical, biotinylated probe, 635/667 nm fluorescence, primary screen (AID 1114);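 further: probe is biotin-labelled aShh protein from a stem cell growth factor screen; measures binding of labelled protein to compounds printed on the slide; score merges feature fluorescence at 667 nm with signal-to-noise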
# condition set: small-molecule microarray, higher = more signal
Quick list: composite z-score per entry.
# answer = number (no unit)

1) CCCc1cc2c(n1Cc1ccc(OC)cc1)C(C)C1CN(C(=O)c3ccccc3)C(C)(C(=O)OC)C21 (stereo not given)
0.686
2) [N-]=[N+]=NCc1ccccc1C[C@]1(C(=O)NCCN2CCOCC2)N=C(c2ccc(OCCCO)cc2)O[C@H]1c1ccccc1
0.131
3) C=C(COC)C(=O)CC[C@H](OC(=O)c1ccccc1-c1ccccc1C(=O)O)c1ccc(CO)o1
-0.0553
4) COC(=O)[C@@]1(Cc2ccccc2)[C@H]2c3cc(C(=O)N4CCCC4)n(Cc4ccccc4)c3C[C@H]2CN1C(=O)c1ccccc1
0.356
5) COCCOC(=O)N1C(=O)[C@@]2(c3cc(C#Cc4ccc(OC)cc4)ccc31)[C@H](C(=O)N1CCc3cc(OC)c(OC)cc3C1)[C@H]1C(=O)O[C@H](c3ccccc3)[C@H](c3ccccc3)N1[C@@H]2c1ccc(O)cc1
0.191
6) CN(C)CCCN1C(=O)[C@@]2(Cc3ccccc31)c1ccccc1C(=O)N(Cc1ccccc1)[C@H]2c1ccc(CO)cc1
-0.289
7) O=C(NCc1ccccc1)[C@]1(Cc2ccccc2)N=C(c2ccc(OCCCO)cc2)O[C@@H]1c1ccccc1
-0.305
8) Cc1ccc(S[C@]2(C(=O)NCC(C)C)CC(=O)N(C3CCCCC3)[C@@H]2c2ccc(CO)cc2I)cc1
-0.188
9) C[C@@]1([C@@H](NC(=O)c2cccs2)c2ccc(-c3ccccc3)cc2)C[C@H]1C1CCCCC1
-0.478
10) CCOC(=O)C[C@H]1[C@H](OC(=O)c2ccccc2-c2ccccc2)[C@@H](NC(=O)c2ccccc2)c2cc(OCCCO)ccc2N1C(=O)Cc1ccc(OC)cc1
-0.289

Query: // returns reported composite z-score for input CCN(CC)c1ccc(N2CC=CC34O[C@@H]5/C=C\CCCOC(=O)C5[C@H]3C(=O)N(CCCCCCO)[C@@H]4C2=O)cc1 (stereo not given in full)
Reply: 0.147

Query: Now the same for N#Cc1ccc(NN2C(C(O)c3ccco3)C=CC3C(=O)N(c4ccccc4)C(=O)C32)cc1 (stereo not given)
Reply: -0.0035

Query: Now the same for Cc1ccc(N2C(=O)c3ccccc3[C@](C)(C(=O)NC(C)C)[C@@H]2c2ccc(CO)cc2)nc1
Reply: -0.49

Query: Now the same for COc1ccc([Si](C)(C)[C@@H]2[C@@H](CC(=O)N(CCO)Cc3ccccc3)O[C@]3(C(=O)N(Cc4ccc(N5CCOC5=O)cc4)c4ccccc43)[C@H]2C)cc1
Reply: 0.321

Query: Now the same for CN(C)C(=O)[C@@]1(CCC(=O)OC(C)(C)C)COC(c2ccc(OCCCO)cc2)=N1
Reply: 0.261

###

# protocol summary: probe aLAP1 signal on lysate-treated microarray – cell lysate, small-molecule microarray, COS7 lysate, primary screen (AID 1124);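 further: lysate comes from COS7 cells expressing LAP1 and is applied at 0.3 µg/mL; score merges spot fluorescence near 667 nm with signal-to-noise over triplicate slides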
# condition set: probe aLAP1, fluorescence, higher = more signal
parameter: composite z-score
# answer = number (no unit)

1. CC(C)CN1C(=O)[C@@]2(Cc3ccccc31)c1ccccc1C(=O)N(Cc1ccccc1)[C@H]2c1ccc(CO)cc1
0.254
2. CC(C)CNC(=O)[C@@]1(c2ccc([N+](=O)[O-])cc2)CC(=O)N(C(C)C)[C@@H]1c1ccc(CO)cc1
0.664
3. N#Cc1ccc(NN2C(C(O)c3ccccc3)C=CC3C(=O)N(c4ccccc4)C(=O)C32)cc1 (configuration not stated)
0.191
4. C=CCC(OC(C)=O)[C@@H]1[C@@H](N(Cc2ccc(-c3ccccc3)cc2)C(=O)c2cccc3ccccc23)c2cc(OCCCO)ccc2N1C(=O)c1ccc2ccccc2n1 (some centres not stated)
0.546
5. COCCCNC(=O)[C@@]1(Cc2ccccc2)COC(c2ccc(OCCCO)cc2)=N1
0.77

Query: // returns reported composite z-score for input COC(=O)[C@@]1(Cc2ccccc2N=[N+]=[N-])N=C(c2ccc(OCCCO)cc2)O[C@H]1c1ccccc1
Reply: 0.156

Query: Now the same for COc1cccc(C[C@H]2C[C@@H](CO[Si](C(C)C)(C(C)C)C(C)C)N3C(=O)[C@]4(C(C)=O)O[C@]23[C@H]2C(=O)N(C)C(=O)[C@H]24)c1
Reply: -0.274

###

# protocol summary: viability profiling in MM1S myeloma cells – cell-based, resazurin fluorescence, basal, 24 h, PK04 Diversity Set, profiling panel (AID 1174);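 further: MM1S multiple myeloma cell line; test concentration not given here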
# condition set: higher = more signal, called active from +8 up or from −8 down
Quick list: z-score per entry.
# answer = number (no unit)

1) CCCN1C(=O)[C@@]2(Cc3ccccc3)N=C(c3ccc(OCCCO)cc3)O[C@H]2c2ccccc21
-1.66
2) COc1ccc([Si](C)(C)[C@H]2[C@H](CC(=O)N3CCC[C@H]3CO)O[C@@]3(C(=O)N(Cc4ccc(N5C(=O)c6cccc7cccc5c67)cc4)c4ccccc43)[C@@H]2C)cc1
-1.61
3) COc1ccc([Si](C)(C)[C@@H]2[C@@H](CCO)O[C@]3(C(=O)N(Cc4ccccc4)c4ccc(N5CCCCC5=O)cc43)[C@H]2C)cc1
-3.11
4) CN1C(=O)C2C=CC(C(O)c3cccc4ccccc34)N(NC(=O)OC(C)(C)C)C2C1=O (stereo unspecified)
-0.776
5) COCCOC(=O)N1C(=O)[C@@]2(c3cc(C#CCCO)ccc31)[C@H](c1ccc(OCCO)cc1)N1[C@H](c3ccccc3)[C@H](c3ccccc3)OC(=O)[C@H]1[C@@H]2C(=O)N1CCc2cc(OC)c(OC)cc2C1
-1.24

Query: // returns reported z-score for input COc1ccc(C#Cc2ccc3c(c2)[C@]2(C(=O)N3)[C@H](c3ccc(OCCO)cc3)N3[C@H](c4ccccc4)[C@H](c4ccccc4)OC(=O)[C@H]3[C@@H]2C(=O)N2CCN(c3ncccn3)CC2)cc1
Reply: 1.48
